protein stability index listing for selected variants.
B1: PWWP2B (parent)
chain: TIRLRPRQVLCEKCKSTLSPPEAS

variants of: B1; assay: protein stability index of a GFP-peptide fusion (GPS, HEK-293T) (PSI 1-6); higher = more stable; conditions: c terminus: a fixed tail appended;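 note: lentivirally expressed fusions sorted by FACS into six bins by GFP to DsRed ratio, PSI derived from sequencing read proportions per bin multiplied by bin number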

{"alteration": "C11P", "protein stability index": 3.46}
{"alteration": "S24D", "protein stability index": 3.44}
{"alteration": "I2S", "protein stability index": 3.64}
{"alteration": "C14R", "protein stability index": 3.32}
{"alteration": "V9H", "protein stability index": 2.97}
{"alteration": "T1M", "protein stability index": 2.23}
{"alteration": "I2G", "protein stability index": 3.27}
{"alteration": "L4I", "protein stability index": 2.79}
{"alteration": "P21E", "protein stability index": 3.63}
{"alteration": "S16M", "protein stability index": 2.94}
{"alteration": "R7F", "protein stability index": 2.94}
{"alteration": "A23P", "protein stability index": 3.3}
{"alteration": "C14V", "protein stability index": 3.52}

Value source: the supplement of paper PMC10567573
